Please respond with reported logP for every item in the list.
# ASSAY TEXT: Lipophilicity, logP of the compound by shake-flask method
# Format: physicochemical
# APPLIED CONDITIONS: octanol/water

# lookup: logP of O=c1oc2cc(OCc3ccc(Cl)cc3)ccc2s1
5.61

# lookup: logP of O=c1oc2cc(OCc3ccccc3)ccc2s1
3.8

---

# TEST TARGET: Amine oxidase [flavin-containing] B (Homo sapiens)
# Sequence (P27338 whole entry): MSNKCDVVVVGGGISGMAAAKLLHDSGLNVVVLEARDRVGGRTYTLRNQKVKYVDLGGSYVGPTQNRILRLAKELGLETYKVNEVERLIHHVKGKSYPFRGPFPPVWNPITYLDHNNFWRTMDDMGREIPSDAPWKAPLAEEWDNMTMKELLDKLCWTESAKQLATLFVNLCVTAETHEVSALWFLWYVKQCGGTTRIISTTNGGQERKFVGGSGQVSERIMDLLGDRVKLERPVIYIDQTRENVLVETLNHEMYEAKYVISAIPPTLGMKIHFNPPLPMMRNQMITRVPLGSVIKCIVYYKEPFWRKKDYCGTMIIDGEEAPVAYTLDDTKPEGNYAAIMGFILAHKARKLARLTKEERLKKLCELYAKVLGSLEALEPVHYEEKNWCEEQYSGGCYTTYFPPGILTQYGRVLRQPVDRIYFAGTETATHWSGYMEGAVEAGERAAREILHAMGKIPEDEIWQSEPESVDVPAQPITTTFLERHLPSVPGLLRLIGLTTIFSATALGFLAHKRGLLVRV
# ASSAY TEXT: Competition inhibition of recombinant human MAO-B pretreated with compound for 15 mins followed by addition of 50 uM kynuramine as substrate by Lineweaver-Burk plot method
MEASURED ENDPOINT: pKi
Quick note: pKi means taking -log10 of the concentration in moles per liter.

Request body: readout pKi, system Amine oxidase [flavin-containing] B (Homo sapiens), query O=c1oc2cc(OCc3ccc(Cl)cc3)ccc2s1 . Return the value.
8.46

---

# TEST TARGET: Amine oxidase [flavin-containing] A (Homo sapiens)
# Sequence (P21397 whole entry): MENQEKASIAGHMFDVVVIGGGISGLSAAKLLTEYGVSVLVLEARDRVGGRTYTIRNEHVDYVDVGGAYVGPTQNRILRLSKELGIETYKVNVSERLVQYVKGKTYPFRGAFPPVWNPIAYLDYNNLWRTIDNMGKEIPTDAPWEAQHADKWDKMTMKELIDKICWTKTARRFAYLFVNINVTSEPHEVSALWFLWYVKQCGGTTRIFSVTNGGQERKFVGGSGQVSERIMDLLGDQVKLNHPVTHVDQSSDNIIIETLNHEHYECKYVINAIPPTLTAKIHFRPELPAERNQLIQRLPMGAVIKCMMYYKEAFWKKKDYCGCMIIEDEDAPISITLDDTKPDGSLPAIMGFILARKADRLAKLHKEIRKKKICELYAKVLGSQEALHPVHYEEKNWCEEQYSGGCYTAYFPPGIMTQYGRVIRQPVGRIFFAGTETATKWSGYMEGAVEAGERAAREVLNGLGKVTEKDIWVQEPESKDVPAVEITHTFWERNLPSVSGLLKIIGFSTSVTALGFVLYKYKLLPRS
MEASURED ENDPOINT: pIC50
Quick note: pIC50 means taking -log10 of the concentration in moles per liter.

# lookup: pIC50 of O=C1OCc2cc(OCc3ccccc3)ccc21
4.57
